experiment: Cytotoxicity against human 293T cells after 48 hrs by colorimetric analysis; type: cell-based; conditions: HEK-293T cells
CC50 at 48 h strictly less than 40 µM = t. Otherwise f.

NC(=O)c1[nH]c2ccc(Cl)cc2c1C1(c2cccs2)CC1
t
O=C(O)c1[nH]c2ccc(Cl)cc2c1C1(c2ccccc2)CC1
f
CCOC(=O)c1[nH]c2ccc(Cl)cc2c1C1(c2cccs2)CC1
f

## Task Strictly below 40 µM: is that where CC50 at 48 h of "OCc1[nH]c2ccc(Cl)cc2c1C1(c2cccs2)CC1" sits?
## Result t

## Task Is 40 µM strictly greater than the molecule's reported CC50 at 48 h? molecule: "O=C(O)c1[nH]c2ccc(Cl)cc2c1C1(c2cccs2)CC1"
## Result f
